Tested on: SF-295 CNS
assayMethodText: NCI-60 one-dose screen, 48 h
details: 10 µM unless noted
About 83,000 compounds went through this panel and 20% of them were active in at least one assay; those are over-represented in the sample as a whole. The source made the active and inactive calls. The calls were made as follows: active = growth percent below 10; inactive = the rest.
The reply should name one outcome from active, inactive

[[record]]
compound = "COc1cc2c3c(c1O)-c1ccccc1[C@@H]1OC(=O)N(CC2)[C@H]31"
classification = "inactive"


Could you kindly confirm the outcome this assay logged for O[C@@H](c1cc(C(F)(F)F)nc2c(C(F)(F)F)cccc12)[C@H]1CCCCN1 ?
inactive

Could you kindly confirm the outcome this assay logged for COc1ccc(C2=NN(C(C)=O)C(c3ccc(Oc4ccnc5cc(Cl)ccc45)c(OC)c3)C2)cc1 (centres undefined) ?
inactive

Could you kindly confirm the outcome this assay logged for Cc1cccc(N2CCN(C(=S)c3ccc4c(c3)OCO4)CC2)c1 ?
active

Could you kindly confirm the outcome this assay logged for Cc1ccc(-c2nc(C#N)c(S(=O)(=O)NCCO)o2)cc1 ?
inactive

---

growth listing for selected compounds.
System: EKVX NSCLC
assayMethodText: NCI-60 one-dose screen, 48 h (100 = growth as untreated, 0 = no growth, -100 = all killed)
details: 10 µM unless noted
Compounds without any hit were thinned out: in the full panel of roughly 83,000, 20% have a hit.
Unit % implied. Number only.

Example results:
[[record]]
compound = "Cc1ccc(/C=C(\\C#N)C(=O)Nc2ncc(Cc3cc(Cl)ccc3Cl)s2)o1"
target = "EKVX NSCLC"
val = 60.4

[[record]]
compound = "Nc1c(C(=O)Nc2ccccn2)sc2nc3c(cc12)C(O)CCC3 (centres undefined)"
target = "EKVX NSCLC"
val = 42.1

[[record]]
compound = "COc1ccc2cc(-c3cnc4nonc4n3)ccc2c1"
target = "EKVX NSCLC"
val = 16.1

[[record]]
compound = "COc1ccc2c(c1)c(-c1nc(-c3cn(C)c4ncccc34)cs1)cn2CCO"
target = "EKVX NSCLC"
val = 67.5

[[record]]
compound = "CCOc1ccc(/C=N\\N=C\\c2ccc(OCC)cc2)cc1"
target = "EKVX NSCLC"
val = 103


Please look at the following compound next.
Fill in the blank: the reported growth of COc1ccc(-c2oc(=O)ccc2-c2cc(OC)c(OC)c(OC)c2)cc1O is ____.
49.5

---

growth listing for selected compounds.
Test system: NCI-H226 lung
assayMethodText: NCI-60 one-dose screen, 48 h (100 = growth as untreated, 0 = no growth, -100 = all killed)
details: 10 µM unless noted
Compounds without any hit were thinned out: in the full panel of roughly 83,000, 20% have a hit. The source made the active and inactive calls. How the source made its calls: active means growth percent below 10; inactive means the rest.

Example results:
[[record]]
compound = "CCCCCSB(SCCCCC)c1ccccc1"
experimentalendpoint = "growth"
val = "102% (inactive)"

[[record]]
compound = "COc1ccc(-c2cc(C(=O)N3N=C(c4ccc(N)cc4)CC3c3ccccc3)c3ccccc3n2)cc1 (stereo not drawn)"
experimentalendpoint = "growth"
val = "77.3% (inactive)"

[[record]]
compound = "CN1CCN(CCOc2ccc(-c3cnc4c(-c5ccc(C(F)(F)F)cc5)cnn4c3)cc2)CC1"
experimentalendpoint = "growth"
val = "87.8% (inactive)"

[[record]]
compound = "Cc1ccc(C(=O)c2ccc(CC(=O)N/N=C/c3ccc(O)cc3O)n2C)cc1"
experimentalendpoint = "growth"
val = "65.7% (inactive)"

[[record]]
compound = "O=C(Nc1ccccc1O)c1ccccc1Nc1ccnc(C(F)(F)F)c1"
experimentalendpoint = "growth"
val = "70.4% (inactive)"


Fill in the blank: the reported growth of COC1=CC(c2ccc[nH]2)=N/C1=C\c1[nH]c(C)c(CC(=O)OCc2ccccc2)c1C is ____.
10.5% (inactive)

Fill in the blank: the reported growth of O=C1Nc2ccc(F)cc2/C1=N/c1nnc(Sc2ccccc2)s1 is ____.
90.7% (inactive)

Fill in the blank: the reported growth of CCCCN1C(=O)/C(=c2\sc3n(c2=O)NC2C(N=3)N(CC)C(=O)N2CC)c2ccccc21 (stereo not drawn) is ____.
70.4% (inactive)

Fill in the blank: the reported growth of Cc1cc(C(=O)Nc2cc(Nc3ncccc3-c3ncnc4nc[nH]c34)ccc2F)cc(C(F)(F)F)c1 is ____.
39.9% (inactive)

Fill in the blank: the reported growth of COc1ccc(-c2cc(-c3ccc(OC)cc3)nc(NCCCNc3ccnc4cc(Cl)ccc34)n2)cc1 is ____.
70.5% (inactive)

Fill in the blank: the reported growth of COc1ccc(C2=NN(C(=O)c3cc(OC)c(OC)c(OC)c3)C(c3ccc(N(C)C)cc3)C2)cc1 (stereo not drawn) is ____.
20.6% (inactive)

---

System: 786-0 renal
assayMethodText: NCI-60 one-dose screen, 48 h (100 = growth as untreated, 0 = no growth, -100 = all killed)
details: 10 µM unless noted
This is part of a sample that, as a whole, favours compounds with a hit. Of some 83,000 tested, about 20% had one in any assay.
experimentalEndpoint: growth (%)
Unit % implied. Number only.

Example results:
[[record]]
molecule = "COc1ccc(C2=Nc3c/c(=C\\c4c(O)[nH]c5cc(Cl)ccc45)ccc3=N2)cc1"
target = "786-0 renal"
val = 90.8

[[record]]
molecule = "CN(C)c1ccc(C(=NO)c2ccc(N(C)C)cc2)cc1"
target = "786-0 renal"
val = 57.3

[[record]]
molecule = "CC/C(Cc1ccccc1)=C(\\c1ccc(OCCN2CCCCCC2)cc1)c1ccc(OC(=O)NCc2ccccc2)cc1"
target = "786-0 renal"
val = 58.4

[[record]]
molecule = "CN1C(=O)/C(=C/c2ccc(C(=O)Nc3ncc(Cc4ccc(F)cc4)s3)cc2)SC1=S"
target = "786-0 renal"
val = 51.9

[[record]]
molecule = "CCCCc1oc2ccccc2c1C(=O)c1ccc(O)cc1"
target = "786-0 renal"
val = 79.5

[[record]]
molecule = "COc1cccc(Nc2ccnc3[nH]c4ccc([N+](=O)[O-])cc4c23)c1"
target = "786-0 renal"
val = 25.7

[[record]]
molecule = "COc1ccc(NC(=O)c2sc3nc(C)c(C(O)c4ccccc4)cc3c2N)cc1 (stereo unspecified)"
target = "786-0 renal"
val = 40.7

[[record]]
molecule = "CN1CCN(CCOc2ccc(-c3cnc4c(-c5ccc(C(F)(F)F)cc5)cnn4c3)cc2)CC1"
target = "786-0 renal"
val = -57.3

[[record]]
molecule = "CCCCN1C(=O)/C(=c2\\sc3n(c2=O)NC2C(N=3)N(CC)C(=O)N2CC)c2ccccc21 (stereo unspecified)"
target = "786-0 renal"
val = 53.6

[[record]]
molecule = "COc1cc(C2=NN(C(C)=O)C(c3ccc(N(C)C)cc3)C2)cc(OC)c1OC (stereo unspecified)"
target = "786-0 renal"
val = 79.7


Fill in the blank: the reported growth of CCSC1=CC(=O)c2ccccc2C1=O is ____.
111

Fill in the blank: the reported growth of C=CC1(C)C(O[Si](C)(C)C(C)(C)C)CC2C3OC(=O)NC31c1cccc3c1[C@H](C(=O)N3C)C2(C)C (stereo partly specified) is ____.
73.6

Fill in the blank: the reported growth of COC(=O)C1=C(C)NC(C)=C(C(=O)OCC(C)C)C1c1ccccc1[N+](=O)[O-] (stereo unspecified) is ____.
59

---

System: NCI/ADR-RES ovarian
assayMethodText: NCI-60 one-dose screen, 48 h (100 = growth as untreated, 0 = no growth, -100 = all killed)
details: 10 µM unless noted
The panel holds about 83,000 compounds, 20% with a hit somewhere; the sample as a whole holds those more often.
experimentalEndpoint: growth (%)
Unit % implied. Number only.

Example results:
[[record]]
molecule = "Cc1ccccc1CNc1c2ccccc2nc2ccccc12"
unitofmeasure = "%"
val = 24.9

[[record]]
molecule = "COc1ccc(/C(C)=C(\\c2ccc(Cl)cc2)c2ccc(OCCN3CCCC3)cc2)cc1"
unitofmeasure = "%"
val = 70.6

[[record]]
molecule = "COc1ccc(C(c2cc(OC)c(OC)c(OC)c2)N2CCCC2)cc1 (stereo not given)"
unitofmeasure = "%"
val = 69.4

[[record]]
molecule = "COc1ccc(C2=C/C(=C\\c3ccc(Cl)cc3)C(=O)N2/N=C/c2ccc(Cl)cc2)cc1"
unitofmeasure = "%"
val = 104

[[record]]
molecule = "CC(/C=C1\\SC(=S)N(CC(=O)NC(Cc2c[nH]c3ccccc23)C(=O)O)C1=O)=C\\c1ccccc1 (stereo not given)"
unitofmeasure = "%"
val = 103


Fill in the blank: the reported growth of CCCCCCCCCCCCCCCCCCOc1ccccc1CC(=O)OCC[N+]1(C)CCOCC1 is ____.
104

Fill in the blank: the reported growth of O=C(CCCCCCN1CC(=O)N2[C@@H](c3ccc(Cl)cc3)c3[nH]c4ccccc4c3C[C@H]2C1=O)NO is ____.
93

Fill in the blank: the reported growth of COc1ccc(-c2ccc(-c3ccc(C(=N)N)cn3)s2)cc1 is ____.
101

Fill in the blank: the reported growth of N=C(N)c1ccc(-c2ccc(-c3ccc(Cl)cc3Cl)s2)cc1F is ____.
10.1

Fill in the blank: the reported growth of CN(C)c1ccc(C(=NO)c2ccc(N(C)C)cc2)cc1 is ____.
13.4
